Value source: PubChem BioAssay (NCI)

# TGI listing for each entry below
system: PC-3 prostate; assay: NCI tumour cell line growth inhibition, 48 h

Known TGI results, listed for orientation:
> print(dat)
                                   compound   reading
1             NC(=O)c1cc(Br)cc(C2CCCCC2)c1O   26.4 µM
2  CCOC(=O)c1sc2nc(SC)nc3c2c1NC(=O)CN3c1cccc(F)c1   34.4 µM
3     O=C(Nc1cccc(C(F)(F)F)c1)O/N=C(/Cl)CCl  > 100 µM
4  Cn1c(=O)c(Oc2ccccc2F)cc2cnc(NC3CCOCC3)nc21   > 25 µM
5  COc1cc(/C=C2\CC3C4CC=C5C[C@@H](OC(C)=O)CC[C@]5(C)C4CC[C@]3(C)C2=O)ccc1OCCCn1ccnc1 (stereo partly specified)   42.1 µM

Alright, here's another compound for you.
Req: Bench note: what TGI did COCCOC(=O)NC(=O)Nc1ccc(/C(=N/O)c2ccc(Cl)cc2)cc1 show?
Resp: 64.2 µM
